Parameter: OD450 nm. Scope: all listed entries.
# System: T1, biotinylated hBLyS-ECD (human, UniProt Q9Y275 134-285, biotinylated with Biotin-X-X-NHS (molar ratio 7:1), sites not stated)
# T1 construct: The hBLyS-ECD of Embodiment 1 after biotinylation (Embodiment 2); also called biotinylated immunogen; BLyS protein; not shown: His tag of the pCPC vector
# T1 sequence (Q9Y275 134-285): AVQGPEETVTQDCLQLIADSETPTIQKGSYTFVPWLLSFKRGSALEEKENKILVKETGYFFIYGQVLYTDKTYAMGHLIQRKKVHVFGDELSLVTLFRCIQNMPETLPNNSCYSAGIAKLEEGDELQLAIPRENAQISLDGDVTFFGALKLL
# Method: ELISA, biotinylated hBLyS-ECD captured on streptavidin; antibody 0.00427 nM
Metric Name: OD450 nm

INSERT INTO measurements (binder, readout_value) VALUES
  ('8E7D9C7F5 (antibody, V domains shown, Mouse hybridoma antibody purified on Protein G) VH: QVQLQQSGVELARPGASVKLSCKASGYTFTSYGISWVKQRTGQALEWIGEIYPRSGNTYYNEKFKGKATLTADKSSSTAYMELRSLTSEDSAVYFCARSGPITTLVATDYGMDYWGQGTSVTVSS VL: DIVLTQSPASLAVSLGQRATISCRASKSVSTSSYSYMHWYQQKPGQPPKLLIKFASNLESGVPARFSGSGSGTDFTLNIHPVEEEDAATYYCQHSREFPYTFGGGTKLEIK', 0.115),
  ('L9G7 (antibody, human IgG1, V domains shown) VH: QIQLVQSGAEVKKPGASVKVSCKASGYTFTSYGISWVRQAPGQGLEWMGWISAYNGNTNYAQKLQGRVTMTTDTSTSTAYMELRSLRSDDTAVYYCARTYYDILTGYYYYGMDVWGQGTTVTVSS VL: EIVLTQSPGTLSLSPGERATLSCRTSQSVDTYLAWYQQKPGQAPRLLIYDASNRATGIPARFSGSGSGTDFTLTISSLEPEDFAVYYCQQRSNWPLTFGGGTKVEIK', 0.0853),
  ('L1D12 (antibody, human IgG1, V domains shown, also called LID12) VH: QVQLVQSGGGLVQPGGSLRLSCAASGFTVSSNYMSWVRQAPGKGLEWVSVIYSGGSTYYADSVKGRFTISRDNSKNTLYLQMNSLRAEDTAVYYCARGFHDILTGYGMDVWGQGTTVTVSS VL: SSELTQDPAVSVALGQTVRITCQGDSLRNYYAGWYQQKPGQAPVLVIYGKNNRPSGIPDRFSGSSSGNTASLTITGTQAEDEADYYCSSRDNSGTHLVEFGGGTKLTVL', 0.135),
  ('97A3C2H4 (antibody, V domains shown, Mouse hybridoma antibody purified on Protein G) VH: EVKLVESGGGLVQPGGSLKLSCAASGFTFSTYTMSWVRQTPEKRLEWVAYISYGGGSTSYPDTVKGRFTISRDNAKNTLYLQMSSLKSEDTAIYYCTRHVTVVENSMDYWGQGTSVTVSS VL: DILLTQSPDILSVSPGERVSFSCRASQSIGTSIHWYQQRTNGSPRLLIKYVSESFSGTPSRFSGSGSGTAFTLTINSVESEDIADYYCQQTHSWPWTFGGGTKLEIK', 0.105),
  ('111D10D6G3 (antibody, V domains shown, Mouse hybridoma antibody purified on Protein G) VH: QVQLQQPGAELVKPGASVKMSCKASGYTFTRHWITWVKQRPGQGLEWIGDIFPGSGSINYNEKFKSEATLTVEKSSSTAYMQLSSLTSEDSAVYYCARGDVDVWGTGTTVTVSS VL: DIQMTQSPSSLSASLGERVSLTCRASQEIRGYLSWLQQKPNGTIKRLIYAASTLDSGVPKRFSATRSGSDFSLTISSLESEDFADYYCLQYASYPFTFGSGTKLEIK', 0.082);
